For each record, write down the corresponding inhibition at 100 µM.
molecular target: Aurora-A (h) (Homo sapiens); construct: purchased Merck Millipore, Inc. (Abingdon, UK), Kinase Profiler service; assay: Kinase Profiler in vitro assay (Merck Millipore), aurora-A; format: biochemical; settings: Aurora-A, at 100 μM concentration, with standard deviation
Sequence (O14965 whole entry): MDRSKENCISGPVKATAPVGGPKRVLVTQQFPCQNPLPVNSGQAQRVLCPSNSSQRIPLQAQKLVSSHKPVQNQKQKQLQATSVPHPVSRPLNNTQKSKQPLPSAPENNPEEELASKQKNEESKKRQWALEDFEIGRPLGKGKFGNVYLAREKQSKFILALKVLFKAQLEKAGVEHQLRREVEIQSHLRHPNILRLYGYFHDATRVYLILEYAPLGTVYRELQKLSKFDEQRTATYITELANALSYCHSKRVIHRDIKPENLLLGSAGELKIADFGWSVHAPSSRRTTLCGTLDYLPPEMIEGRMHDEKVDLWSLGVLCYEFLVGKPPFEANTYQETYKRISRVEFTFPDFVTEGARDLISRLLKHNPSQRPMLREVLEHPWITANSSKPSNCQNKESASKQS
Numbers only, in %.

Input line: Give the measured inhibition at 100 µM of `Cc1nonc1-c1ccnc2nnc(N)n12` .
Output line: 8

Input line: Now this one: `COC(=O)CSc1nnc(-c2n[nH]c3c2CCC3)n1N`
Output line: 28

Input line: Now this one: `C/C=C/C(=O)Nn1cnc2c(cnn2-c2ccccc2)c1=O`
Output line: 2

Input line: Now this one: `COC(=O)c1nc2[nH]c(=O)cc(C)n2n1`
Output line: 24

Input line: Now this one: `COC(=O)/C=C1\S/C(=N\NC(=O)c2snnc2C)NC1=O`
Output line: 35

Dear reader, for each entry below, please note its inhibition at 100 µM.
1. O=C(Nc1onc2c1CCCC2)c1nc(-c2cnccn2)no1
2. Cc1nn2c(nc3ccccc32)[nH]c1=O
3. COc1cnc(NCc2ncn[nH]2)nc1-c1ccnn1C
4. O=c1cc(-c2ccccc2)[nH]c2nc(SCc3ccccc3)nn12
5. O=C1C=CC(=O)c2[nH]c(C(F)(F)F)nc21

Output line:
[39, 31, 25, 13, 93]
